Value source: patent US11180770B2

System: HPPD polypeptides
assay: coupled HPPD activity assay: turnover and residual turnover in crude extracts
Assay type: biochemical, Pseudomonas fluorescens
settings: presence of 100 μM Cmpd. 1; high substrate concentration; changes in absorbance (OD) at 320 nm
property_label: Residual turnover
Please give only the number in your answer, with no unit.

Query :: Find the recorded Residual turnover belonging to 37 (protein, mutant HPPD polypeptide) MADLYENPMGLMGFEFIEFASPTPGTLEPIFEIMGFTKVATHRSKNVHLYRQGEINLILNNEPNSIASYFAAEHGPSVCGMAFRVKDSQKAYNRALELGAQPIHIDTGPMELNLPAIKGIGGAPLYLIDRFGEGSSIYDIDFVYLEGVERNPVGAGLKVIDHLTHNVYRGRMVYWANFYEKLFNFREARYFDIKGEYTGLTSKAMSAPDGMIRIPLNEESSKGAGQIEEFLMQFNGEGIQHVAFLTDDLVKTWDALKKIGMRFMTAPSDNYYEMLEGRLPDHGEPVDQLQARGILLDGSSVEGDKRLLLQIFSETLMGPVFFEFIQRKGDDGFGPHSFKVLFESVERDQVRRGVLTAD and report it.
Result :: 0.048
